Entries and their pIC50
STUDY_TARGET: PIK3CA_C242 (Homo sapiens, UniProt P42336)
Construct: endogenous in cells
PROTOCOL_DETAILS: Proteomic TE50 (IA-DTB / TMT mass spectrometry) in Jurkat cell lysate
TEST_SETTINGS: 1 hour at rt, 7-point dose response
pIC50: −log10 of the molar value.
PARAMETER: pIC50

MOLECULE | STUDY_TARGET | RESULT_NUMBER
COc1cccc(-c2cc(Br)ccc2S(=O)(=O)N2CCC(F)(C(=O)N[C@@H](C)/C=C\S(C)(=O)=O)CC2)c1 [Compound 61] | PIK3CA_C242 (Homo sapiens, UniProt P42336) | 7.18
CS(=O)(=O)/C=C/CNC(=O)C1(F)CCN(S(=O)(=O)c2ccc(Cl)cc2-c2ccccc2Cl)CC1 [Compound 40] | PIK3CA_C242 (Homo sapiens, UniProt P42336) | 6.68
COc1cc(-c2ccccc2C)c(S(=O)(=O)N2CCC(F)(C(=O)N[C@@H](C)/C=C\S(C)(=O)=O)CC2)cn1 [Compound 190] | PIK3CA_C242 (Homo sapiens, UniProt P42336) | 7.21
C[C@H](/C=C\S(C)(=O)=O)NC(=O)C1(F)CCN(S(=O)(=O)c2ccc(N(C)C)cc2-c2ccccc2)CC1 [Compound 91] | PIK3CA_C242 (Homo sapiens, UniProt P42336) | 6.37
C[C@@H](/C=C\S(C)(=O)=O)NC(=O)C1(F)CCN(S(=O)(=O)c2ccc(Cl)cc2-c2cccc(OCc3cccnc3)c2)CC1 [Compound 260] | PIK3CA_C242 (Homo sapiens, UniProt P42336) | 6.68
COc1ccc(S(=O)(=O)N2CC[C@@](F)(C(=O)N[C@H](C)/C=C/C(=O)N3CC(F)(F)C3)C[C@H]2C)c(-c2ccccc2Cl)c1 [Compound 151] | PIK3CA_C242 (Homo sapiens, UniProt P42336) | 6.70

###

STUDY_TARGET: PIK3CA_C242 (Homo sapiens)
Construct: endogenous in cells
PROTOCOL_DETAILS: Proteomic TE50 (IA-DTB / TMT mass spectrometry) in Jurkat cell lysate
TEST_SETTINGS: 1 hour at rt, 7-point dose response

CHEMICAL_STRING | IC50 / µM
COc1ccc(S(=O)(=O)N2CCC(F)(C(=O)N[C@H](C)/C=C\S(C)(=O)=O)CC2)c(-c2c(F)cccc2Cl)c1 | 0.34
C[C@@H](/C=C\S(C)(=O)=O)NC(=O)C1(F)CCN(S(=O)(=O)c2ccc(Cl)cc2-c2cccc(OCc3ccccn3)c2)CC1 | 0.063
COc1ccc(S(=O)(=O)N2CCC(F)(C(=O)N[C@H](C)/C=C\S(C)(=O)=O)CC2)c(-c2cccc(F)c2Cl)c1 | 0.371
COc1ccc(S(=O)(=O)N2CCC(F)(C(=O)N[C@@H](C)/C=C\S(C)(=O)=O)CC2)c(-c2ccccc2C)c1 | 0.066
N#C/C=C/CNC(=O)C1(F)CCN(S(=O)(=O)c2ccc(Cl)cc2-c2ccccc2Cl)CC1 | 0.52
COc1cc(-c2ccccc2)c(S(=O)(=O)N2CCC(F)(C(=O)N[C@@H](C)/C=C\S(C)(=O)=O)CC2)cn1 | 0.24
C[C@H](/C=C\S(C)(=O)=O)NC(=O)C1(F)CCN(S(=O)(=O)c2ccc(Cl)cc2-c2ccccc2)CC1 | 0.462
C[C@@H](/C=C\S(C)(=O)=O)NC(=O)C1(F)CCN(S(=O)(=O)c2ccc(Cl)cc2-c2cccc(Oc3ccccc3)c2)CC1 | 0.703
CC#CCOc1cccc(-c2cc(Cl)ccc2S(=O)(=O)N2CCC(F)(C(=O)N[C@@H](C)/C=C\S(C)(=O)=O)CC2)c1 | 0.51
C[C@H](/C=C\S(C)(=O)=O)NC(=O)C1(F)CCN(S(=O)(=O)c2ncc(Br)cc2-c2ccccc2Cl)CC1 | 0.44
COc1ccc(Cl)c(-c2cc(Cl)ncc2S(=O)(=O)N2CCC(F)(C(=O)N[C@@H](C)/C=C\S(C)(=O)=O)CC2)c1 | 0.209
COc1ccc(Cl)c(-c2cc(Cl)ncc2S(=O)(=O)N2CCC(F)(C(=O)N[C@H](C)/C=C\S(C)(=O)=O)CC2)c1 | 0.98
C[C@@H](/C=C\S(C)(=O)=O)NC(=O)C1(F)CCN(S(=O)(=O)c2ccc(Cl)cc2-c2cccc(OCc3ccccc3Cl)c2)CC1 | 0.39
Cc1ccccc1-c1cc(N2CCCC2)ccc1S(=O)(=O)N1CCC(F)(C(=O)N[C@H](C)/C=C\S(C)(=O)=O)CC1 | 0.25
C[C@H](/C=C\S(C)(=O)=O)NC(=O)C1(F)CCN(S(=O)(=O)c2ccc(N3CCCC3)cc2-c2ccc(F)cc2Cl)CC1 | 0.063
COc1cccc(-c2cc(OC)ccc2S(=O)(=O)N2CCC(F)(C(=O)N[C@@H](C)/C=C\S(C)(=O)=O)CC2)c1 | 0.187
C[C@H](/C=C/C(=O)N1CC(F)(F)C1)NC(=O)C1(F)CCN(S(=O)(=O)c2ccc(Br)cc2-c2ccccc2Cl)CC1 | 0.12
COc1cc(-c2ccccc2Cl)c(S(=O)(=O)N2CCC(F)(C(=O)N[C@H](C)/C=C\S(C)(=O)=O)CC2)cc1Cl | 0.39
C[C@H](/C=C\S(C)(=O)=O)NC(=O)C1(F)CCN(S(=O)(=O)c2cnc(Br)cc2-c2ccccc2Cl)CC1 | 0.082
C[C@H](/C=C\S(C)(=O)=O)NC(=O)C1(F)CCN(S(=O)(=O)c2ccc(N3CCCC3)cc2-c2ccccc2)CC1 | 0.81
COc1ccc(S(=O)(=O)N2CCC(F)(C(=O)NC/C=C/S(C)(=O)=O)CC2)c(-c2ccccc2C)c1 | 0.313
C=Cc1ccc(S(=O)(=O)N2CCC(F)(C(=O)N[C@H](C)/C=C\S(C)(=O)=O)CC2)c(-c2ccccc2Cl)c1 | 0.32
C[C@@H](/C=C\S(C)(=O)=O)NC(=O)C1(F)CCN(S(=O)(=O)c2ccc(N(C)C)cc2-c2ccccc2)CC1 | 0.086
CCOc1cccc(-c2cc(Cl)ccc2S(=O)(=O)N2CCC(F)(C(=O)N[C@@H](C)/C=C\S(C)(=O)=O)CC2)c1 | 0.275
N#C/C=C\CNC(=O)C1(F)CCN(S(=O)(=O)c2ccc(Br)cc2-c2ccccc2Cl)CC1 | 0.07
CO/N=C/c1cccc(-c2cc(Cl)ccc2S(=O)(=O)N2CCC(F)(C(=O)N[C@@H](C)/C=C\S(C)(=O)=O)CC2)c1 | 0.96

###

STUDY_TARGET: PIK3CA (Homo sapiens, UniProt P42336)
Construct: endogenous in cells
Sequence (P42336 whole entry): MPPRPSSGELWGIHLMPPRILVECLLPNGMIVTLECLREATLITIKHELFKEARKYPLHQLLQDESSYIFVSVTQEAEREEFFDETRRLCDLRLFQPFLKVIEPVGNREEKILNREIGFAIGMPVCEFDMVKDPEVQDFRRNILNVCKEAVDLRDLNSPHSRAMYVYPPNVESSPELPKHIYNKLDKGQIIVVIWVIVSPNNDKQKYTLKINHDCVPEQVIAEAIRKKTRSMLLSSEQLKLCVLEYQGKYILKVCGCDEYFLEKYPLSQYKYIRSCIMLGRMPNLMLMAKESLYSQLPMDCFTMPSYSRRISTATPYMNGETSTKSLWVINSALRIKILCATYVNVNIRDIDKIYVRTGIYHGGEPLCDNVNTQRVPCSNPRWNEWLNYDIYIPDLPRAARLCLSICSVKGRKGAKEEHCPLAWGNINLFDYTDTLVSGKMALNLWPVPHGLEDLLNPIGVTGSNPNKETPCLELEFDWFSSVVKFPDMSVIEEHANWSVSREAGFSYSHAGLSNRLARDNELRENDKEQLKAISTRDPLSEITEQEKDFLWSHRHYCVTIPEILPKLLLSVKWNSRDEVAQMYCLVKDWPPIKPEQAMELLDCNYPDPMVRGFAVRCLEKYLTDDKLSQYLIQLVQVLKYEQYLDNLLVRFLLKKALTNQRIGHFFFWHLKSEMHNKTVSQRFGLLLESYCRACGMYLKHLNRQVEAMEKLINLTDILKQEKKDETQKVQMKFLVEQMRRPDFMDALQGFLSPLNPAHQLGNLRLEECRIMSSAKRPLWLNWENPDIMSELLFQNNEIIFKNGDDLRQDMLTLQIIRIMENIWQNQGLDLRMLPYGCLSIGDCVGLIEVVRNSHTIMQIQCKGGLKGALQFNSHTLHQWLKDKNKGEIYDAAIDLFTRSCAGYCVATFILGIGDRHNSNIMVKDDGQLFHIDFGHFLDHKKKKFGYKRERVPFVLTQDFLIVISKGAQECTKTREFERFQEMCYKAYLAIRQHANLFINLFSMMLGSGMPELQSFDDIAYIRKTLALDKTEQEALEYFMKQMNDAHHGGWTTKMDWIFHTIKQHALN
Sequence (P27986 whole entry partner): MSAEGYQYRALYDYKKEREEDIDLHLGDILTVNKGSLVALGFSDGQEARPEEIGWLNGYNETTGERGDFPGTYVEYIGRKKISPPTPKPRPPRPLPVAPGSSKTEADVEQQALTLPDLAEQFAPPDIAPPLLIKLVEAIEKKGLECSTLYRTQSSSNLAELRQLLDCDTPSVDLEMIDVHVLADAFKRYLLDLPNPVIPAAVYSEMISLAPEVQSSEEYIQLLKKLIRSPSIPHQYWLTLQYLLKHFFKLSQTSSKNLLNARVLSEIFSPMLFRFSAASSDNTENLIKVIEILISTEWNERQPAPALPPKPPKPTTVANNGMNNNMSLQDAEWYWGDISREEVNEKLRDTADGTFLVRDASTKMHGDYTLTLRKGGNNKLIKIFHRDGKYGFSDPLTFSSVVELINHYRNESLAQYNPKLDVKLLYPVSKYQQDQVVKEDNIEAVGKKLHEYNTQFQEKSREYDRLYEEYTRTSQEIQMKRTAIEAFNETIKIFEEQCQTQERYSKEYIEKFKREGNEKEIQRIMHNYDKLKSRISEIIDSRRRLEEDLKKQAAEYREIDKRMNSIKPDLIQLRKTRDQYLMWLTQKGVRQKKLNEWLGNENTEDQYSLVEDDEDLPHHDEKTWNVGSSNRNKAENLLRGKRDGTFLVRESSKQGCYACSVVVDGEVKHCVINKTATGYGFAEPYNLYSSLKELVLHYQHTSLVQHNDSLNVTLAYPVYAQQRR
PROTOCOL_DETAILS: In vitro ELISA target engagement assay for PIK3CA in Jurkat cellular lysate (competition with PIK3CA Biotin Probe)
TEST_SETTINGS: 1 hour at rt, then 500 nM PIK3CA Biotin Probe, read-out: Elisa Target Engagement Assay (TE50)
pIC50: −log10 of the molar value.
pIC50 overview
PARAMETER: pIC50

COMPOUND | PARAMETER | RESULT_NUMBER
C[C@H](/C=C\S(C)(=O)=O)NC(=O)[C@@]1(F)CCCN(C(=O)[C@H]2CN(CC(C)(F)F)C[C@H]2c2ccccc2Cl)CC1 | pIC50 | 6.90
C[C@@H](/C=C\S(C)(=O)=O)NC(=O)C1(F)CCN(S(=O)(=O)c2ccc(Cl)cc2-c2cccc(OCc3cccnc3)c2)CC1 | pIC50 | 6.82
C[C@@H](C#CC(=O)N(C)C)NC(=O)C1(F)CCN(S(=O)(=O)c2ccc(Br)cc2-c2ccccc2Cl)CC1 | pIC50 | 6.80
Cc1c(F)cccc1-c1cc(Br)ccc1S(=O)(=O)N1CCC(F)(C(=O)N[C@H](C)/C=C\S(C)(=O)=O)CC1 | pIC50 | 6.82
COc1ccc(S(=O)(=O)N2CC[C@](F)(C(=O)N[C@H](C)/C=C\S(C)(=O)=O)C[C@H]2C)c(-c2ccccc2Cl)c1 (single isomer, unassigned) | pIC50 | 6.41
C[C@H](/C=C\S(C)(=O)=O)NC(=O)C1(F)CCN(S(=O)(=O)c2cnc(Br)cc2-c2ccccc2Cl)CC1 | pIC50 | 7.01
C[C@H](/C=C\S(C)(=O)=O)NC(=O)[C@@]1(F)CCCN(C(=O)[C@@H]2CN(CC(C)(F)F)C[C@@H]2c2cccc(F)c2Cl)CC1 (single isomer, unassigned) | pIC50 | 6.68
CCOc1ccc(S(=O)(=O)N2CCC(F)(C(=O)N[C@H](C)/C=C\S(C)(=O)=O)CC2)c(-c2ccccc2C)c1 | pIC50 | 6.14
COc1cc(-c2ccccc2C)c(S(=O)(=O)N2CCC(F)(C(=O)N[C@@H](C)/C=C\S(C)(=O)=O)CC2)cn1 | pIC50 | 6.96
C[C@H](/C=C\S(C)(=O)=O)NC(=O)[C@@]1(F)CCCN(C(=O)[C@H]2CN(C3CC3)C[C@H]2c2ccccc2Cl)CC1 | pIC50 | 6.25
C[C@H](/C=C\S(C)(=O)=O)NC(=O)C1(F)CCN(S(=O)(=O)c2ccc(Br)cc2-c2cc(F)ccc2Cl)CC1 | pIC50 | 6.32
C[C@H](/C=C\S(C)(=O)=O)NC(=O)C1(F)CCN(C(=O)[C@H]2CN(C(=O)c3ccccc3)C[C@H]2c2ccccc2Cl)CC1 | pIC50 | 6.11
C[C@H](/C=C\S(C)(=O)=O)NC(=O)C1(F)CCN(S(=O)(=O)c2ccc(N(C)C)cc2-c2ccccc2)CC1 | pIC50 | 6.55
C[C@H](/C=C\S(C)(=O)=O)NC(=O)[C@@]1(F)CCCN(C(=O)c2ccc(Br)cc2-c2ccccc2Cl)CC1 | pIC50 | 7.21
C[C@H](/C=C\S(C)(=O)=O)NC(=O)[C@@]1(F)CCCN(C(=O)[C@H]2CN(CC3(F)CC3)C[C@H]2c2c(F)cccc2Cl)CC1 (single isomer, unassigned) | pIC50 | 7.07
COc1ccc(S(=O)(=O)N2CCC(F)(C(=O)N[C@@H](C)/C=C\S(C)(=O)=O)CC2)c(-c2ccccc2)c1 | pIC50 | 6.85
C[C@H](/C=C\S(C)(=O)=O)NC(=O)C1(F)CCN(S(=O)(=O)c2ccc(Br)cc2-c2cccc(Cl)c2)CC1 | pIC50 | 6.15
C[C@H](/C=C\S(C)(=O)=O)NC(=O)C1(F)CCN(C(=O)[C@H]2CN(C3CC3)C[C@H]2c2ccccc2Cl)CC1 | pIC50 | 6.13
C[C@@H](/C=C\S(C)(=O)=O)NC(=O)C1(F)CCN(S(=O)(=O)c2ccc(N(C)C)cc2-c2ccccc2)CC1 | pIC50 | 7.10
C[C@H](/C=C\S(C)(=O)=O)NC(=O)[C@@]1(F)CCCN(C(=O)[C@@H]2CCN(CC(F)(F)F)C[C@H]2c2ccccc2Cl)CC1 (single isomer, unassigned) | pIC50 | 6.51
C[C@H](C#CC(=O)N(C)C)NC(=O)C1(F)CCN(S(=O)(=O)c2ccc(Br)cc2-c2ccccc2Cl)CC1 | pIC50 | 6.82
C[C@H](/C=C\S(C)(=O)=O)NC(=O)C1(F)CCN(C(=O)[C@@H]2CCC3(CCC3)C[C@H]2c2ccccc2Cl)CC1 (racemic) | pIC50 | 6.38
C[C@H](/C=C\S(C)(=O)=O)NC(=O)[C@@]1(F)CCCN(C(=O)[C@H]2CN(CC(F)(F)F)C[C@H]2c2ccccc2F)CC1 (single isomer, unassigned) | pIC50 | 6.29
C[C@@H](/C=C\S(C)(=O)=O)NC(=O)C1(F)CCN(S(=O)(=O)c2cnc(C(F)(F)F)cc2-c2cccc(F)c2Cl)CC1 | pIC50 | 6.96
COc1cccc(-c2cc(Cl)ccc2S(=O)(=O)N2CCC(F)(C(=O)N[C@@H](C)/C=C\S(C)(=O)=O)CC2)c1 | pIC50 | 6.96
